Here the recorded EC50 is given for each entry.
Molecular target: RNA-binding protein pos-1 (Caenorhabditis elegans, UniProt G5EF15)
Sequence (G5EF15 whole entry): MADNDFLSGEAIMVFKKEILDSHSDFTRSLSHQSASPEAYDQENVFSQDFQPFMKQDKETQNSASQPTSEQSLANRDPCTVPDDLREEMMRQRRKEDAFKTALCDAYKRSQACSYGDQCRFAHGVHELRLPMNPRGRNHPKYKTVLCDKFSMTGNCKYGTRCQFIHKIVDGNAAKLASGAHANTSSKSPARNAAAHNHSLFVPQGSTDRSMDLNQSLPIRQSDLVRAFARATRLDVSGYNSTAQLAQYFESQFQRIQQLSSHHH
Assay: inhibitors of POS-1/mex-3 RNA binding, dose response, biochemical, fluorescence polarization (AID 1964);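 also: purified POS-1 fused to maltose binding protein made in E. coli; potency of compounds blocking POS-1 binding to fluorescent RNA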
Calls of active or inactive are those of the source. Rule as the data show it: actives have a measured EC50 and inactives only a lower limit.

# example entries with known answers
compound: CCC(C)n1c(=N)c(C#N)cc2c(=O)n3cc(C)ccc3nc21 (stereo unspecified)
EC50: > 300 µM (not active)
//
compound: Cc1cc2c3c(c1)C(C)CC(C)(C)N3C(=O)C2=O (stereo unspecified)
EC50: > 300 µM (not active)
//
compound: O=C(NCC1CCCO1)c1nn2c(C(F)(F)F)cc(-c3cc(Br)cs3)nc2c1Br (stereo unspecified)
EC50: > 300 µM (not active)
//
compound: Cc1ccc(S(=O)(=O)NNC(=S)NC(=O)c2ccc([N+](=O)[O-])cc2)cc1
EC50: 31.8 µM (active)
//
compound: CCCCC1=CC2=CC(=O)C(C)(OC(=O)c3ccco3)C(=O)C2=CO1 (stereo unspecified)
EC50: 20.5 µM (active)

Which EC50 value belongs to O=C1CSC(=S)N1/N=C/c1ccc(Cl)c([N+](=O)[O-])c1 ?
18.6 µM (active)

Which EC50 value belongs to CCc1cc(C(=O)Nc2ccc(OC)nc2)sc1C ?
11.8 µM (active)

Which EC50 value belongs to CCN(CC)c1nc(-c2nnn[nH]2)nc(N(CC)CC)n1 ?
> 300 µM (not active)

Which EC50 value belongs to COc1ccc(N2C(=O)/C(=C/c3ccc(C)o3)C(=O)NC2=S)c(OC)c1 ?
> 300 µM (not active)

Which EC50 value belongs to O=C1/C(=C/c2ccc(Br)cc2)Oc2cc(O)ccc21 ?
7.71 µM (active)

Which EC50 value belongs to CCCCN1C(=O)NC(=O)/C(=C\NNC(=O)c2ccncc2)C1=O ?
> 300 µM (not active)
